# Experimental target: SARS-CoV-2 3CLpro (Severe acute respiratory syndrome coronavirus 2, UniProt P0DTD1)
# Protocol summary: biochemical
# Format: biochemical
# Assay setup: 4 h, sheet LOPAC_screen_w_protease; primary screen with protease, 5 µM; replicate 1; read-out: Replicate_1
Structures can show the parent of a compound that is named as a salt.
Property measured: inhibition at 5 µM (%)
Write the number in % without appending the unit.

Here's what some known entries look like.
- O=C1CCC(c2ccc(-n3ccnc3)cc2)=NN1: 0.89
- CN(C)CCC(c1ccccc1)c1ccccn1 (stereo not drawn) [Pheniramine maleate]: 0.594
- C[N+](C)(C)CCCCCC[N+](C)(C)C [Hexamethonium bromide]: 1.66
- O=C(O)CNC(=O)C(CS)Cc1ccccc1 (racemic): -0.479
- O=C(O)c1ccccc1Nc1ccccc1: 0.635
- O=C(O)c1cc2cc(F)ccc2[nH]1: 0.54
- CCCCCC(O)c1cccc(OCc2ccc3ccccc3n2)c1 (stereo not drawn): 0.269
- CCCCCCCCCCCCC/C=C/[C@@H](O)[C@@H](N)CO: -1.81

Answer with reported inhibition at 5 µM of Cc1ccc(S(=O)(=O)NC(=O)NN2CCCCCC2)cc1 [Tolazamide]
-0.0393

Recall and state the measured inhibition at 5 µM for C=CCc1ccccc1OCC(O)CNC(C)C (stereo not drawn) [Alprenolol hydrochloride] .
0.164

====

mean for assorted compounds
# Experimental target: SARS-CoV-2 3CLpro (Severe acute respiratory syndrome coronavirus 2)
# Protocol summary: biochemical
# Assay type: biochemical
# Set-up: unit not given here
# Assay setup: sheet LOPAC_screen_w_protease; LOPAC1280 primary screen at 5 µM, with protease; mean of the two replicates

- COC(=O)C(N)Cc1ccc(Cl)cc1.Cl (racemic): 0.6507
- C[C@H](N)CN1CCc2ccc(Br)cc21.C[C@H](N)CN1CCc2ccc(Br)cc21.O=C(O)/C=C/C(=O)O [VER-3323 hemifumarate salt]: 0.8173
- Cl.Cl.Clc1cccc(N2CCNCC2)c1: 0.4258
- COc1ccc(CCN(C)CCc2ccc(OC)c(OC)c2)cc1OC.Cl [YS-035 hydrochloride]: 0.8264

Now let's try a different one.
Hello, please tell me recorded mean for this one: NCC(O)(CS(=O)(=O)O)c1ccc(Cl)cc1 (centres unmarked) [2-Hydroxysaclofen]
0.8279

====

# reported Ratio (A/B); entries follow
# Experimental target: SARS-CoV-2 3CLpro (Severe acute respiratory syndrome coronavirus 2)
# Protocol summary: biochemical
# Assay type: biochemical
Kindly provide the number alone.

Take a look at these entries with their results.
• O=c1oc(Cl)c(Cl)c2ccccc12 [3,4-Dichloroisocoumarin, reference compound] = 1.6
• Oc1cc2c(c(Cl)c1O)CCNCC2c1ccccc1 (racemic) [(±)-6-Chloro-PB] = 1.4
• O=C(O)c1cc[c]([Hg][Cl])cc1 [4-Chloromercuribenzoic acid, reference compound] = 0.9
• O=Nc1ccc2oc(=O)ccc2c1 [6-Nitroso-1,2-benzopyrone, reference compound] = 1.6
• CC(C)C[C@H](N)CS = 2.2
• NC[C@@H]1O[C@H](C23CC4CC(CC(C4)C2)C3)Cc2c1ccc(O)c2O = 1.6
• Cc1c(OCC(F)(F)F)ccnc1C[S+]([O-])c1nc2ccccc2[nH]1 (stereo not drawn) [Lansoprazole, reference compound] = 3.9
• C[n+]1cc2c3c(ccc2c2ccc4cc5c(cc4c21)OCO5)OCO3 = 0.8

Specify Ratio (A/B) for C[N+](C)(C)CCC(=O)c1cccc2ccccc12 and stop.
0.9

Value source: paper PMC7587356
